# reported pIC50; entries follow
- EXPERIMENT_SUMMARY: Inhibition of sheep brain tubulin polymerization by DAPI-fluorescence based fluorimetry
- Parameters: species or system Ovis aries
The quantity pIC50 is defined as the negative base-10 logarithm of the molar concentration.

Illustrative cases are given below, each with its answer.
> print(dat)
                                   molecule  observable  numeric.readout
1  C=C(c1ccc2c(c1)c1ccccc1n2C)c1cc(C#N)nc2ccccc12       pIC50             5.44
2  C=C(c1ccc2c(c1)c1ccccc1n2C)c1cc(C)nc2ccccc12       pIC50             5.70
3    C=C(c1ccnc(C)c1)c1ccc2c(c1)c1ccccc1n2C       pIC50             5.21
4  COc1ccc(/C=C\c2cc(OC)c(OC)c(OC)c2)cc1O [COMBRETASTATIN A4]       pIC50             5.66
5  C=C(c1ccc(OC)c(O)c1)c1cc(OC)c(OC)c(OC)c1       pIC50             5.68
6  C=C(c1cc(OC)c(OC)c(OC)c1)c1ccc2c(c1)c1ccccc1n2C       pIC50             5.52

Look up and state reported pIC50 for C=C(c1cc(C)nc(C)c1)c1ccc2c(ccn2C)c1 5.43

Return reported pIC50. Input molecule: C=C(c1ccc2c(c1)c1ccccc1n2C)c1nc(C)nc2ccccc12 5.68
